# experimental_target: BRAF^V600E protein (Homo sapiens, UniProt P15056, V600E)
# Sequence (P15056 whole entry V600E): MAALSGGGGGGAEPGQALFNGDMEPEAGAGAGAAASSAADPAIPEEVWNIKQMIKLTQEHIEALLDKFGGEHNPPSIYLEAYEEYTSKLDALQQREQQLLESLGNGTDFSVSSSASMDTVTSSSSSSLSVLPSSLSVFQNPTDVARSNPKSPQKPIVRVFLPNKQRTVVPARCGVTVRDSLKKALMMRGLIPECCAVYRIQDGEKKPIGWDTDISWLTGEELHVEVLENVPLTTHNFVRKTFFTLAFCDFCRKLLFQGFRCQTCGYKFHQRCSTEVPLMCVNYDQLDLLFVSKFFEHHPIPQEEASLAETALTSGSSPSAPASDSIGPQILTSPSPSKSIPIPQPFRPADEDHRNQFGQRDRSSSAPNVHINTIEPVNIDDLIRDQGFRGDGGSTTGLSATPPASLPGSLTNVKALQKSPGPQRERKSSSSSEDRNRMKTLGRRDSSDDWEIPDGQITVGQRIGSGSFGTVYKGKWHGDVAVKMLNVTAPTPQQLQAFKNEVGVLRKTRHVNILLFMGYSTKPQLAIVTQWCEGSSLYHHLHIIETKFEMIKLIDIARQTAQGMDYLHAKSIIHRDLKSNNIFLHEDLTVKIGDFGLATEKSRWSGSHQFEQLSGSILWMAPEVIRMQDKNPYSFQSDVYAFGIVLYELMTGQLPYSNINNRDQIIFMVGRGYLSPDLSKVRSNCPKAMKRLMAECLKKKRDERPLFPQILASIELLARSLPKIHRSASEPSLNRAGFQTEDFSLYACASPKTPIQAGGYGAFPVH
# test_name: HiBiT cellular BRAF V600E degradation assay
# Type: cell-based
# assay_context: A375.10 cells, 24 h incubation; Emax = amount of residual protein remaining in the cell after compound treatment; read-out: HiBit 24 h Emax
readout_name: Emax (%)

Solved cases below.
[[record]]
molecule = "CCN(C)S(=O)(=O)Nc1ccc(F)c(C(=O)c2c[nH]c3ncc(-c4ccc(N5CCN(CCN6CCC(c7ccc(OC8CCC(=O)NC8=O)cc7)CC6)C(=O)C5)nc4)cc23)c1F (stereo not drawn)"
experimental_target = "BRAF^V600E protein (Homo sapiens, UniProt P15056, V600E)"
readout_name = "Emax"
experimental_value = 14.6

[[record]]
molecule = "CCN(C)S(=O)(=O)Nc1ccc(F)c(C(=O)c2c[nH]c3ncc(-c4cnc(N5CCC(n6cc7c(n6)CN(c6ccc(NC8CCC(=O)NC8=O)cc6)CC7)CC5)nc4)cc23)c1F (stereo not drawn)"
experimental_target = "BRAF^V600E protein (Homo sapiens, UniProt P15056, V600E)"
readout_name = "Emax"
experimental_value = 8.46

[[record]]
molecule = "CCN(C)S(=O)(=O)Nc1cccc(C(=O)c2c[nH]c3ncc(-c4ccc(N5CCN(C(=O)CC6(O)CCN(c7ccc(C8CCC(=O)NC8=O)cc7F)CC6)CC5)nc4)cc23)c1F (stereo not drawn)"
experimental_target = "BRAF^V600E protein (Homo sapiens, UniProt P15056, V600E)"
readout_name = "Emax"
experimental_value = 6.33

[[record]]
molecule = "CCN(C)S(=O)(=O)Nc1ccc(F)c(C(=O)c2c[nH]c3ncc(-c4ccc(N5CCN(CCCC(=O)N6CCC(c7ccc(OC8CCC(=O)NC8=O)cc7)CC6)CC5)nc4)cc23)c1F (stereo not drawn)"
experimental_target = "BRAF^V600E protein (Homo sapiens, UniProt P15056, V600E)"
readout_name = "Emax"
experimental_value = 34

[[record]]
molecule = "CCN(C)S(=O)(=O)Nc1cccc(C(=O)c2c[nH]c3ncc(-c4cnc(N5CCN(C(=O)CC6(O)CCN(c7ccc(NC8CCC(=O)NC8=O)cc7)CC6)CC5)nc4)cc23)c1F (stereo not drawn)"
experimental_target = "BRAF^V600E protein (Homo sapiens, UniProt P15056, V600E)"
readout_name = "Emax"
experimental_value = 13.2


a: CCN(C)S(=O)(=O)Nc1ccc(F)c(C(=O)c2c[nH]c3ncc(-c4ccc(N5CCN(C(=O)CC6(O)CCN(c7ccc(NC8CCC(=O)NC8=O)cc7F)CC6)CC5)cc4)cc23)c1F (stereo not drawn)
b: O=C(c1c(F)ccc(NS(=O)(=O)N2CCCC2)c1F)c1c[nH]c2ncc(-c3ccc(N4CC5(CN(C(=O)CN6CCC(c7ccc(NC89CC(C8)C(=O)NC9=O)cc7)CC6)C5)C4)cc3)cc12
query: Among a and b , whose measured Emax is the smaller figure? Kindly give the label for the entry you pick.
result: a
(a: 8.6%, b: 24%)
